- System: SF-295 CNS
- TEST PROTOCOL: NCI tumour cell line growth inhibition, 48 h
READOUT: log10 of TGI (log10 of the value in µM)
Units before log transform: µM; reported quantity: TGI; transform: log10.

Lookup: // lookup log10 of TGI | system=SF-295 CNS | key= `O=[N+]([O-])c1cccc(-c2nc(-c3ccc(Cl)cc3Cl)cn2-c2ccccc2)c1`
Found: -0.01

Lookup: // lookup log10 of TGI | system=SF-295 CNS | key= C=CC(COC(=O)C(C)(C)OC(C)=O)c1ccc(OC(=O)C(C)C)c(OC)c1 (stereo not drawn)
Found: 1.30

Lookup: // lookup log10 of TGI | system=SF-295 CNS | key= `CC(C)(C)c1cc(C(=O)Nc2ccc(C(=O)NCCN)cc2)cc(C(C)(C)C)c1`
Found: 0.54

Lookup: // lookup log10 of TGI | system=SF-295 CNS | key= CC(=O)NC1C(OC(C)C(=O)NC(C(=O)NC(CCC(=O)NCCCNC2c3ccccc3Nc3cccc([N+](=O)[O-])c32)C(N)=O)C(C)C)C(O)C(CO)OC1(C)OCc1ccccc1 (stereo not drawn)
Found: 0.51

Lookup: // lookup log10 of TGI | system=SF-295 CNS | key= O=[N+]([O-])C1=Cc2cc(Cl)ccc2OC1c1cccc2ccccc12 (stereo not drawn)
Found: 0.79
